Recorded growth by entry
# Tested on: PC-3 prostate
# assay name: NCI-60 one-dose screen, 48 h (100 = growth as untreated, 0 = no growth, -100 = all killed)
# assay conditions: 10 µM unless noted
Compounds without any hit were thinned out: in the full panel of roughly 83,000, 20% have a hit.
Write the value in % as a bare number.

compound="O=C(CC1Sc2ccccc2NC1=O)NNc1ccc(F)cc1 (stereo not given)" test_result=52.5
compound="O=C(NCOC(O)C(Cl)(Cl)Cl)NCOC(O)C(Cl)(Cl)Cl (stereo not given)" test_result=95.6
compound=O=C1NCC(=O)N(Cc2ccco2)[C@H]1Cc1ccccc1 test_result=91
compound=O=C1C2=C(CCN(Cc3ccccc3)C2)N2CCN=C2N1Cc1ccc(C(F)(F)F)cc1 test_result=20.3

Prompt line: Give growth for the following compound: O=C(/C=C/C12c3ccccc3C(c3ccccc31)C1C(=O)N(c3ccc(Cl)cc3)C(=O)C12)c1ccccn1 (stereo not given)
Response line: -19.8
